I'd appreciate it if you could supply pIC50 values for the items below.
Assay: Inhibiting Platelet activating factor receptor by radioreceptor binding assay using rabbit platelets and [3H]-PAF
# pIC50 is unitless: minus log10 of the molar concentration; print number only

[in] // pIC50 lookup, key: `C/C1=C\CC[C@@]2(C)O[C@@H]2C(=O)[C@@H]2CC[C@@H](C)[C@](C)(CC1)[C@H]2C=O`
[out] 6.92

[in] For the compound `C/C1=C\CC[C@@]2(C)O[C@@H]2[C@H](O)[C@@H]2CC[C@@H](C)[C@](C)(CC1)[C@H]2COC(=O)N(C)C` , what pIC50 is on record?
[out] 6.74

[in] Value lookup for pIC50; key = `CC(=O)OC[C@H]1[C@H]2CC[C@@H](C)[C@]1(C)CC/C(C)=C/CC[C@@]1(C)O[C@@H]1C2=O`
[out] 6.39

[in] What pIC50 value was documented for this compound, `CCC(=O)OC[C@H]1[C@H]2CC[C@@H](C)[C@]1(C)CC/C(C)=C/CC[C@@]1(C)O[C@@H]1[C@@H]2O` ?
[out] 6.47

[in] Fill blank: measured pIC50 of the compound `CC(=O)OC[C@H]1[C@H]2CC[C@@H](C)[C@]1(C)CC/C(C)=C/CC[C@@]1(C)O[C@@H]1[C@@H]2O` is ____.
[out] 7.10

[in] Would you kindly share the measured pIC50 for `C/C1=C\CC[C@@]2(C)O[C@@H]2C(=O)[C@@H]2CC[C@@H](C)[C@](C)(CC1)[C@H]2COC(=O)N(C)C` ?
[out] 6.74

[in] Endpoint output: pIC50 of `C/C1=C\CC[C@@]2(C)O[C@@H]2C(=O)[C@@H]2CC[C@@H](C)[C@](C)(CC1)[C@H]2CO` . Value?
[out] 5.89

[in] Recorded pIC50 of `C/C1=C\CC[C@@]2(C)O[C@@H]2C(=O)[C@@H]2CC[C@@H](C)[C@](C)(CC1)[C@H]2COc1ccon1` , please.
[out] 7.30

[in] I would be grateful if you could share the reported pIC50 for `COC(=O)OC[C@H]1[C@H]2CC[C@@H](C)[C@]1(C)CC/C(C)=C/CC[C@@]1(C)O[C@@H]1C2=O` .
[out] 7.59

[in] Which pIC50 reading was recorded for the compound `C/C1=C\CC[C@@]2(C)O[C@@H]2C(=O)[C@@H]2CC[C@@H](C)[C@](C)(CC1)[C@H]2COC(=O)Oc1ccccc1` ?
[out] 6.26

[in] Find the recorded pIC50 belonging to `COC(=O)OC[C@H]1[C@H]2CC[C@@H](C)[C@]1(C)CC/C(C)=C/CC[C@@]1(C)O[C@@H]1[C@@H]2O` and report it.
[out] 6.89

# credit: BindingDB's records for doi:10.1021/jm950640q
